assay: NCI Yeast Anticancer Drug Screen. Data for the wt2 strain (AID 169); details: S. cerevisiae wt2 strain growth inhibition; at 100.0 µM
This is part of a sample that, as a whole, favours compounds with a hit. Of some 79,000 tested, about 15% had one in any assay. Active and inactive are the calls of the source. No stated cut-off is given here; in the data, active means growth inhibition above about 70%; inactive means the rest.
Use one of these outcomes when replying: true for active, false for inactive

Study these solved cases before continuing.
CCN(CC)C(=S)SC(=S)N(CC)CC	true
COc1cccc(/C=C2\S/C(=N/Nc3nc(-c4ccc([N+](=O)[O-])cc4)cs3)NC2=O)c1O	true
Cc1cc2nc3ccccc3n2c2ccccc12	false
NC(N)=NC(N)=Nc1ccccc1 (tested in a mixture with another compound)	true
COc1cc(OC)c(CSCC(NC(=O)OCC2c3ccccc3-c3ccccc32)C(=O)O)c(OC)c1 (stereo not given)	true
CCc1c(Cl)c(C)c(Cl)c(O)c1Cl	true
CCCNC(=O)OCc1c(COC(=O)NCCC)c(-c2ccc(Cl)c(Cl)c2)n2c1CCC2	false
Cc1cc(C)c(S(=O)(=O)c2ccc(Cl)cc2)c(C)c1	false
O=c1c2ccccc2nc(-c2ccc(Cl)cc2)n1O	true
CCOC(=O)/C(=C\c1cccc(C)c1)C(C)=O	true

Look up the recorded call for `O=C(O)C(=Cc1ccc(-c2ccccc2)cc1)C(=O)O` in this test. true

What outcome does the record of this test show for BrC1C2CCC3OC3C12 (stereo not given) ? true

Outcome logged for `CCCCCCNCCCNc1c2cc(OC)ccc2nc2cccc([N+](=O)[O-])c12` in this assay: true

Per the assay record, what outcome was assigned to C/C(=N\OCC(O)CNCCSCc1ccccc1)c1ccccc1Cl (stereo not given) ? true

Dear all, I need the recorded test outcome for `COc1ccccc1NC(=O)c1ccc(Cl)cc1` , thank you. false

Could you please tell me the result logged for `CCCCCCCN1C(=O)c2ccccc2C1=O` in this assay? false

Recorded test call requested for `COC(=O)c1ccccc1N=NNc1cccc(SC)c1` true

So what was the verdict on `CCCCCCCN(CCCCCCC)CC(=O)c1ccc2cc(Cl)c3ccccc3c2c1` in this test? true
